The values you see were collected from the supplement of paper PMC9732359.

assay comment: protein stability index of a GFP-peptide fusion (yeast GPS) (PSI 1-4); higher = more stable; sorted into four equal gates, so the index is relative within each strain
condition notes: pdr5∆
recorded endpoint: protein stability index
Just the number, please, no unit after it.

seq: SRAQILQIHSRKMTTDD [RPT5]
protein stability index: 2.43

Query: Requested read-out: protein stability index. Entry: AISTGAKIDVMLTIARL [RPN7]
Reply: 3.23

Query: Now the same for VAALVSLTEKFSQTVAD [ECM29]
Reply: 1.61

Query: Now the same for QEASKQYTKDEQFYTKD [RPN2]
Reply: 3.3

Query: Now the same for EKQTPNKKDKKKEEEEQ [RPN1]
Reply: 2.98

Query: Now the same for ELGEKKNEKLKFQETLL [ISW2]
Reply: 2.7

Query: Now the same for MDETQTRAKIGGLNDPR [RPO21]
Reply: 2.24

###

Reported protein stability index by item:
assay comment: protein stability index of a GFP-peptide fusion (yeast GPS) (PSI 1-4); higher = more stable; sorted into four equal gates, so the index is relative within each strain
condition notes: doa10∆

seq: RGVRPYKHIDASGSINR [RPS19A]
meas value: 3.23

seq: PTLQVGDLVYARVCTAE [RRP40]
meas value: 1.5

seq: CELLKLTNEDPPGLMYL [SSN2]
meas value: 2.85

seq: ATFLKDDLPYYVNALAD [QCR2]
meas value: 2.37

seq: DKELRKTKFQYKFLDQN [YIL149C/MLP2]
meas value: 2.72

seq: RQLQYETLGDILKRDFE [ECM29]
meas value: 2.92

seq: VICSVTGPIEPKARQEL [RRP46]
meas value: 2.79

seq: DEEYPVKVKVSYQKLLK [PRP8]
meas value: 3.03

seq: EGQIIQRSNISTAIKSL [CDC53]
meas value: 1.55

seq: MDSKGKITIGIQRTTES [RGR1]
meas value: 3.44

Query: Requested read-out: protein stability index. Entry: VISMFVLPIFTTVFFSR [YML031W/NDC1]
Reply: 1.38

Query: Now the same for KQYDNRITKSNEKSQAE [LRP1]
Reply: 2.91

Query: Now the same for FLKLANGGKFSKSNLIH [RGR1]
Reply: 2.65

###

assay comment: protein stability index of a GFP-peptide fusion (yeast GPS) (PSI 1-4); higher = more stable; sorted into four equal gates, so the index is relative within each strain
condition notes: pdr5∆
Reported protein stability index by item:
Just the number, please, no unit after it.

# annotated cases, reported protein stability index shown
seq: GLELSNFKSYRGVTKVG [SMC1]
meas value: 3.09

seq: TTVPFKESDDPSIPLVI [POP1]
meas value: 3.01

seq: QTVRLIKDLQRAINKVL [SIR2]
meas value: 2.03

seq: EAAAVRDLSEASVYPEY [RPS26A]
meas value: 2.53

In the following, a different sequence is considered.
Query: Requested read-out: protein stability index. Entry: SKMSDESFAELMTKLNS [RPC17]
Reply: 3.67

###

assay comment: protein stability index of a GFP-peptide fusion (yeast GPS) (PSI 1-4); higher = more stable; sorted into four equal gates, so the index is relative within each strain
condition notes: ubr1∆
Reported protein stability index by item:
Just the number, please, no unit after it.

# annotated cases, reported protein stability index shown
seq: ENIAQMKPKAEKESDDG [SMC4]
protein stability index: 3.74
--
seq: ARDLFLKIYYKEEFSSD [RRI2]
protein stability index: 2.9
--
seq: LKRFPKMSVTCNAQPIT [BRR2]
protein stability index: 1.9
--
seq: LNDHIDDFEVNVASLVR [GRR1]
protein stability index: 3.08
--
seq: TPEYAAEKVKVRDELRK [UBP6]
protein stability index: 1.46

Query: Requested read-out: protein stability index. Entry: LGYKDTSVIQDLSEKIL [BRR2]
Reply: 2.89

Query: Now the same for TKPSETPATIVKKPTFT [YOR098C/NUP1]
Reply: 3.04

Query: Now the same for MMVSYPKIDEDDTWYNL [AAR2]
Reply: 3.35

Query: Now the same for PAIPPVIDLEKIKFDES [BRR2]
Reply: 2.77
